- TARGET_DESC: Active Human ERK2 (hERK2) (Homo sapiens (Human))
- Sequence (P28482 whole entry): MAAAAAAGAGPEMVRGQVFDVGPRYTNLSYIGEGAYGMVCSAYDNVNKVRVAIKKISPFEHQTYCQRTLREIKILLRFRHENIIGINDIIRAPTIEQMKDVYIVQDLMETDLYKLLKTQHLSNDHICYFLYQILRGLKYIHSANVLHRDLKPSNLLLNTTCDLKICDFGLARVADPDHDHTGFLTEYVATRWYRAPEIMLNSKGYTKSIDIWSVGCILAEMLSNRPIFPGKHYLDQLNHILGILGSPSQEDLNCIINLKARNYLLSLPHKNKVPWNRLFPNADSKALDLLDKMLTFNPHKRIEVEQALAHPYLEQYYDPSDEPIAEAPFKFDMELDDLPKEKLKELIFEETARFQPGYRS
- ASSAY_SUMMARY: Active Human ERK2 (hERK2) Activity Assay (IMAP-FP)
- Type: biochemical
- TEST_CONDITIONS: phosphorylated active hERK2, 30 μM ATP; average; read-out: ERK 2 Human average IC50
- Experimental: Assays Active Human ERK2 (hERK2) Activity Assay: Activated ERK2 activity was determined in an IMAP-FP assay (Molecular Devices). […] The final reaction in each well of 25 μL consists of 0.5 nM hERK2, 900 nM unlabeled peptide, 80 nM labeled-peptide, and 30 μM ATP. […] Plates were read on EnVision reader after 60 minutes binding equilibration using Fluorescence Polarization protocol (Perkin Elmer).
MEASURED_PARAMETER: IC50 (nM)

[
  {
    "COMPOUND": "CSC1CN(C(=O)c2n[nH]c3cc(NC(=O)N[C@H](C)c4ccccc4)ncc23)C1",
    "READOUT_VALUE": 501
  },
  {
    "COMPOUND": "Cc1cc(-c2n[nH]c3cc(NC(=O)NC4COc5ccccc5C4)ncc23)ccn1 (centres unmarked)",
    "READOUT_VALUE": 1.25
  },
  {
    "COMPOUND": "Cc1cc(-c2n[nH]c3cc(NC(=O)N[C@H](C)c4ccc(F)c(Cl)c4)ncc23)ccn1",
    "READOUT_VALUE": 0.432
  },
  {
    "COMPOUND": "C[C@@H](NC(=O)Nc1cc2[nH]nc(C(=O)NCC(O)C(F)F)c2cn1)c1ccccc1 (some centres unmarked)",
    "READOUT_VALUE": 4.49
  },
  {
    "COMPOUND": "CCC(NC(=O)Nc1cc2[nH]nc(-c3ccnc(C)c3)c2cn1)c1ccccn1 (centres unmarked)",
    "READOUT_VALUE": 1.34
  },
  {
    "COMPOUND": "Cc1cc(-c2n[nH]c3cc(NC(=O)N(C)C4CCCCC4)ncc23)ccn1",
    "READOUT_VALUE": 2450
  },
  {
    "COMPOUND": "COC[C@@H](NC(=O)Nc1cc2[nH]nc(-c3ccc(C#N)nc3)c2cn1)c1ccc(F)cc1",
    "READOUT_VALUE": 3.21
  },
  {
    "COMPOUND": "Cc1cc(-c2n[nH]c3cc(NC(=O)NCC(O)C(F)(F)F)ncc23)ccn1 (centres unmarked)",
    "READOUT_VALUE": 8.06
  },
  {
    "COMPOUND": "CCCCNC(=O)Nc1cc2[nH]nc(C3CCC3)c2cn1",
    "READOUT_VALUE": 39.7
  },
  {
    "COMPOUND": "COc1cc(-c2n[nH]c3cc(NC(=O)N[C@H](C)c4ccc(F)cc4)ncc23)cc(C(F)(F)F)n1",
    "READOUT_VALUE": 379
  },
  {
    "COMPOUND": "Cc1cncc(-c2n[nH]c3cc(NC(=O)N[C@H](C)c4ccc(F)cc4)ncc23)c1",
    "READOUT_VALUE": 1.8
  },
  {
    "COMPOUND": "C[C@@H](NC(=O)Nc1cc2[nH]ncc2cn1)c1ccc(F)cc1",
    "READOUT_VALUE": 836
  },
  {
    "COMPOUND": "O=C(NCC1CC1)Nc1cc2[nH]nc(C3CC3)c2cn1",
    "READOUT_VALUE": 84.3
  },
  {
    "COMPOUND": "Cc1cc(-c2n[nH]c3cc(NC(=O)NC(C4CC4)C(F)(F)F)ncc23)ccn1 (centres unmarked)",
    "READOUT_VALUE": 4.48
  },
  {
    "COMPOUND": "Cc1cc(-c2n[nH]c3cc(NC(=O)NCc4nnc(-c5ccccc5)[nH]4)ncc23)ccn1",
    "READOUT_VALUE": 48.1
  },
  {
    "COMPOUND": "Cc1cc(-c2n[nH]c3cc(NC(=O)NC(C)(C)c4ccc(Cl)cc4)ncc23)ccn1",
    "READOUT_VALUE": 10.2
  },
  {
    "COMPOUND": "Cc1cc(-c2n[nH]c3cc(NC(=O)NCc4csc(C)n4)ncc23)ccn1",
    "READOUT_VALUE": 0.934
  }
]
